// values below are reported Inhibitory Potency for ribonucleotide reductase
- TARGET UNDER TEST: ribonucleotide reductase (Rattus norvegicus)
- Construct: partially purified from Novikoff hepatoma; from tissue; host or cells: Novikoff hepatoma (rat tumour), partially purified enzyme
- Sequence (Q4KLN6 whole entry): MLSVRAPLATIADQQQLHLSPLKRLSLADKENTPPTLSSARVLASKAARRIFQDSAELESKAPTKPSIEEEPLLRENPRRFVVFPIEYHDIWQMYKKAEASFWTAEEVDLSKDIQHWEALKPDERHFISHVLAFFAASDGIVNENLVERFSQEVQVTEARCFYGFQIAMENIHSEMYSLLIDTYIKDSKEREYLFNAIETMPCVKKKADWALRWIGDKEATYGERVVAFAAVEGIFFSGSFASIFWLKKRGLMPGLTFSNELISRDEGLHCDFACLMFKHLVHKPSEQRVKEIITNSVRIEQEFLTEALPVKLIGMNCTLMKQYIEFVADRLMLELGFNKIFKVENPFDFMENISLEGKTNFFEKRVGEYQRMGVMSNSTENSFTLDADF
- TEST NAME: Inhibition of ribonucleotide reductase (conversion of CDP to dCDP), enzyme partially purified from Novikoff hepatoma
- Assay type: biochemical
- CONDITION LABEL: relative to hydroxyurea, given an arbitrary value of 1.0
ASSAY READOUT: Inhibitory Potency for ribonucleotide reductase

[[record]]
molecule = "O=C(NO)c1c(O)cccc1O [2,6-dihydroxybenzohydroxamic acid]"
value_measured = 5.0

[[record]]
molecule = "O=C(NO)c1ccc(O)c(O)c1O [2,3,4-trihydroxybenzohydroxamic acid]"
value_measured = 140

[[record]]
molecule = "NC(=O)c1cc(O)c(O)c(O)c1 [3,4,5-trihydroxybenzamide]"
value_measured = 50

[[record]]
molecule = "NC(=O)c1ccc(O)c(O)c1O [2,3,4-trihydroxybenzamide]"
value_measured = 100

[[record]]
molecule = "O=C(NO)c1cccc(O)c1O [2,3-dihydroxybenzohydroxamic acid]"
value_measured = 63

[[record]]
molecule = "O=C(NO)c1ccc(O)c(O)c1 [3,4-dihydroxybenzohydroxamic acid]"
value_measured = 17

[[record]]
molecule = "O=C(Oc1ccccc1)c1cc(O)c(O)c(O)c1 [phenyl 3,4,5-trihydroxybenzoate]"
value_measured = 33

[[record]]
molecule = "O=C(NO)c1ccc(O)cc1O [2,4-dihydroxybenzohydroxamic acid]"
value_measured = 2.0

[[record]]
molecule = "NC(=O)c1ccc(O)c(O)c1 [3,4-dihydroxybenzamide]"
value_measured = 10

[[record]]
molecule = "O=C(NO)c1cc(O)cc(O)c1 [3,5-dihydroxybenzohydroxamic acid]"
value_measured = 1.2

[[record]]
molecule = "O=C(NO)c1cc(O)ccc1O [2,5-dihydroxybenzohydroxamic acid]"
value_measured = 2.5

[[record]]
molecule = "O=C(NO)c1cc(O)c(O)c(O)c1 [3,4,5-trihydroxybenzohydroxamic acid]"
value_measured = 50

